The measurements presented in this section are drawn from paper PMC9352680.

test_system: T1, PUF4 RNA-binding domain (Saccharomyces cerevisiae, UniProt P25339 537-888)
T1 sequence: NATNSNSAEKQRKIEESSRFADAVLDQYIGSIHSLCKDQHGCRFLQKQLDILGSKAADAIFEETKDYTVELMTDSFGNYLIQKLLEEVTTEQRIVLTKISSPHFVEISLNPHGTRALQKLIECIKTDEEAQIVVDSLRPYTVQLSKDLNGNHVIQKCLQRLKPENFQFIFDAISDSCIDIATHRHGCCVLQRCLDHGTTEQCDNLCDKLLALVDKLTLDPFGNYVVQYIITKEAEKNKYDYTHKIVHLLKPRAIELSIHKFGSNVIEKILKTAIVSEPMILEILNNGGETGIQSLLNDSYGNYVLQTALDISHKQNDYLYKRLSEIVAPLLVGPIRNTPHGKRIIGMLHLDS
experiment_summary: Mg; RNA-MaP; 20 mM Na-HEPES pH 7.4, 30 mM KOAc, 0.75 mM MgCl2, 0.1% Tween-20, 5% glycerol, 0.1 mg/mL BSA, 2 mM DTT; 25 C; 0.0125-409.6 nM protein
test_conditions: tags: N-His6-TEV cleaved; C-SNAP kept, Cy3B-labelled; label: tethered on chip by stalled RNA polymerase
Binary label based on Kd with cut-off 40 nM: below gives Condition met, not below gives Condition not met.

Answered cases to consult:
UCUCUUUGUAGUUUCUCUCUU (ssRNA) [Ic_S1_P4E.1_K4.1_C4.1_H4.1_A4.1_[T5G]_[A6T]_F4.1_[A9C]_T4.1]; Condition not met
Id_ii_S2_P5E.4_K5.3_C5.2_[C-2G]_H5.3_A5.1_F5.1_T5.2_[T11A] (ssRNA) RNA: UUUGAUUAAUAUGAUAUCGUUCUUUCUGUACACUUAUUAAAUUCUUUCUCGAUAUCAUAUUAAUCUUU; Condition met
ACAAACGCUAUAUAUUACCACAAAC (ssRNA) [Id_ii_S3_P4E.3_K4.2_C4.2_[C-2G]_[T-1C]_H4.2_A4.1_F4.1_T4.2_[G10C]_[T11C]]; Condition met

## Task Consider UCUCUUGGUAUAUUCUCUCUU (ssRNA) [Ib_S1_P4E.1_K4.1_C4.1_H4.1_[T1G]_A4.1_F4.1_[A9C]_T4.1] . Does its Kd lie strictly below 40 nM?
## Result Condition not met

## Task Consider Id_ii_S2_P5E.3_K5.2_C5.2_H5.2_A5.1_F5.1_T5.2_[T11G]_[A12T] (ssRNA) RNA: UUUGAUUAAUAUGAUAUCGUUCUUUCUCUUAUAUUAUUAGUUUCUUUCUCGAUAUCAUAUUAAUCUUU . Does its Kd lie strictly below 40 nM?
## Result Condition not met

## Task Consider UCUCUUUGUACUGGUCUCUU (ssRNA) [Ic_S1_P3E.1_K3.1_C3.1_H3.1_A3.1_[T5C]_[A6T]_F3.1_[T7G]_[A8G]_T3.1] . Does its Kd lie strictly below 40 nM?
## Result Condition not met

## Task Consider ACAAACUCUAUAUAUAGCACAAAC (ssRNA) [Id_ii_S3_P3E.3_K3.2_C3.2_[C-2T]_[T-1C]_H3.2_A3.1_F3.1_T3.2_[T9G]_[A10C]] . Does its Kd lie strictly below 40 nM?
## Result Condition not met

## Task Consider Ie_S2_P4E.1_K4.1_C4.1_H4.1_A4.1_F4.1_[+9CC]_T4.1 (ssRNA) RNA: UUUGAUUAAUAUGAUAUCGUUCUUUCUUGUAUAUUACCUUCUUUCUCGAUAUCAUAUUAAUCUUU . Does its Kd lie strictly below 40 nM?
## Result Condition met

## Task Consider UCUCUUUGUGUAUUAUUAACUCUCUU (ssRNA) [Id_ii_S1_P5E.2_K5.1_C5.2_[C-2T]_[T-1G]_H5.1_A5.1_F5.1_T5.2_[T11A]_[A12C]] . Does its Kd lie strictly below 40 nM?
## Result Condition met

## Task Consider Ib_S2_P3E.1_K3.1_C3.1_H3.1_A3.1_[T5C]_F3.1_[T7C]_T3.1 (ssRNA) RNA: UUUGAUUAAUAUGAUAUCGUUCUUUCUUGUACACAUUCUUUCUCGAUAUCAUAUUAAUCUUU . Does its Kd lie strictly below 40 nM?
## Result Condition met

## Task Consider UCUCUUUGUAUUUCUCUCUU (ssRNA) [Ic_S1_P3E.1_K3.1_C3.1_H3.1_A3.1_[A6T]_F3.1_[A8C]_T3.1] . Does its Kd lie strictly below 40 nM?
## Result Condition not met

## Task Consider Ic_S4_P4E.1_K4.1_C4.1_H4.1_A4.1_[T5A]_[A6C]_[T7C]_F4.1_[A9T]_T4.1 (ssRNA) RNA: UUUGACAACUGAUCGUUCUUUCUUGUAACCUUUUCUUUCUCGAUCAGUUGUCUUU . Does its Kd lie strictly below 40 nM?
## Result Condition met

## Task Consider UCUCUUCCUGUAUAUAUAUCUCUU (ssRNA) [Id_ii_S1_P3E.2_K3.1_C3.2_[T-1C]_H3.1_A3.1_F3.1_T3.2] . Does its Kd lie strictly below 40 nM?
## Result Condition met

## Task Consider UCUCUUGGUAUAUAUCUCUU (ssRNA) [Ia_S1_P3E.1_K3.1_C3.1_H3.1_[T1G]_A3.1_F3.1_T3.1] . Does its Kd lie strictly below 40 nM?
## Result Condition not met

## Task Consider ACAAACAUUAUAUAUAACACAAAC (ssRNA) [Id_ii_S3_P3E.3_K3.2_C3.2_[C-2A]_H3.2_A3.1_F3.1_T3.2_[T9A]_[A10C]] . Does its Kd lie strictly below 40 nM?
## Result Condition not met

## Task Consider Ib_S4_P3E.1_K3.1_C3.1_H3.1_[T1G]_A3.1_[T5C]_F3.1_T3.1 (ssRNA) RNA: UUUGACAACUGAUCGUUCUUUCUGGUACAUAUUCUUUCUCGAUCAGUUGUCUUU . Does its Kd lie strictly below 40 nM?
## Result Condition not met

## Task Consider UCUCUUGUUAUAUAUAAUUCUCUU (ssRNA) [Id_ii_S1_P3E.3_K3.2_C3.2_[C-2G]_H3.2_A3.1_F3.1_T3.2_[T9A]_[A10T]] . Does its Kd lie strictly below 40 nM?
## Result Condition not met

## Task Consider Id_ii_S2_P5E.4_K5.3_C5.2_[T-1C]_H5.3_A5.1_F5.1_T5.2 (ssRNA) RNA: UUUGAUUAAUAUGAUAUCGUUCUUUCUCCACACUUAUUAUAUUCUUUCUCGAUAUCAUAUUAAUCUUU . Does its Kd lie strictly below 40 nM?
## Result Condition not met
